target: 5HT2A receptor (Homo sapiens); test: cell-based; parameters: expressed in transfected cells; host or cells: HEK293T cells, transient co-transfection; conditions: 5HTA Gq EC50 (nM), BRET2 Gαq dissociation, HEK293T
EC50 vs 100 nM: less than gives y; not less than gives n.

Input line: Problem: For the molecule "Clc1cccc2c(-c3cncnc3)n[nH]c12" , is EC50 under 100 nM?
Output line: y

Input line: Please answer likewise for "CN1CC(c2c[nH]c3c(Cl)cccc23)C1"
Output line: n

Input line: Please answer likewise for "CN1CCC=C(c2c[nH]c3cnccc23)C1"
Output line: n

Input line: Please answer likewise for "Fc1cc(Cl)c2[nH]nc(N3CCNCC3)c2c1"
Output line: n

Input line: Please answer likewise for N#Cc1cccc2c(C34CNCCC3C4)n[nH]c12 (centres unmarked)
Output line: n

Input line: Please answer likewise for "CC#CCN1CCC=C(c2n[nH]c3c(Cl)cccc23)C1"
Output line: y

Input line: Please answer likewise for "CCN1CCC=C(c2nn(CC)c3c(Cl)cccc23)C1"
Output line: y

Input line: Please answer likewise for "Clc1cccc2c(C3=CCCN(CC4CC4)C3)n[nH]c12"
Output line: y

Input line: Please answer likewise for "CCCN1CCC=C(c2c[nH]c3c(Cl)c(F)ccc23)C1"
Output line: y

Input line: Please answer likewise for "Clc1cccc2c(C3=CCCN(C4CC4)C3)n[nH]c12"
Output line: y

Input line: Please answer likewise for FC1(F)C2CNCC21c1n[nH]c2c(Cl)cccc12 (centres unmarked)
Output line: n

Input line: Please answer likewise for "Clc1cccc2c(C3=CN4CCC3CC4)c[nH]c12"
Output line: n

Input line: Please answer likewise for "OCCN1CCC=C(c2n[nH]c3c(Cl)cccc23)C1"
Output line: n

Input line: Please answer likewise for "Cc1cccc2c(C3CN(C)C3)c[nH]c12"
Output line: n

Input line: Please answer likewise for "CN1CC(c2c[nH]c3c(F)cccc23)C1"
Output line: n

Input line: Please answer likewise for Fc1cc(Cl)c2[nH]nc(C34CNCC3C4(F)F)c2c1 (centres unmarked)
Output line: n

Input line: Please answer likewise for "CN1CCC=C(c2c[nH]c3ccncc23)C1"
Output line: n

Input line: Please answer likewise for Fc1cc(Cl)c2[nH]nc(C34CNCCC3C4)c2c1 (centres unmarked)
Output line: n

Input line: Please answer likewise for "CCCc1cccc2c(C3=CCCN(CC)C3)c[nH]c12"
Output line: n

Input line: Please answer likewise for "Fc1ccc2c(C3=CCCNC3)c[nH]c2n1"
Output line: n

Input line: Please answer likewise for "CCCN1CCC=C(c2c[nH]c3ccncc23)C1"
Output line: n

Input line: Please answer likewise for Clc1cccc2c(C3=CC4CCC(C3)N4)n[nH]c12 (centres unmarked)
Output line: n

Input line: Please answer likewise for Fc1cc(Cl)c2[nH]cc(C34CNCC3C4)c2c1 (centres unmarked)
Output line: n

Input line: Please answer likewise for Clc1cccc2c(C34CNCCC3C4)c[nH]c12 (centres unmarked)
Output line: n

Input line: Please answer likewise for "Cc1cc(Cl)cc2c(C3CNC3)c[nH]c12"
Output line: n

Input line: Please answer likewise for CCCN(CCC)C1CCC=C(c2n[nH]c3c(Cl)cccc23)C1 (centres unmarked)
Output line: n

Input line: Please answer likewise for CN1CC2CC2(c2n[nH]c3c(Cl)cccc23)C1 (centres unmarked)
Output line: n

Input line: Please answer likewise for "Cc1ccc2[nH]cc(C3=CCCNC3)c2n1"
Output line: n

Input line: Please answer likewise for Fc1ccc2c(C34CNCC3C4)c[nH]c2c1Cl (centres unmarked)
Output line: y

Input line: Please answer likewise for "CN1CCC=C(c2c[nH]c3nc(F)ccc23)C1"
Output line: n

Input line: Please answer likewise for c1cnc2[nH]cc(C34CNCCC3C4)c2c1 (centres unmarked)
Output line: n

Input line: Please answer likewise for Cc1cc(F)cc2c(C34CNCC3C4)c[nH]c12 (centres unmarked)
Output line: n

Input line: Please answer likewise for "[2H]C([2H])([2H])N1CCC=C(c2n[nH]c3c(Cl)cccc23)C1"
Output line: y

Input line: Please answer likewise for "Cc1ccnc2c(C3=CCCN(C)C3)c[nH]c12"
Output line: y

Input line: Please answer likewise for Fc1cc(Cl)c2[nH]cc(C3CNCCO3)c2c1 (centres unmarked)
Output line: n

Input line: Please answer likewise for Cc1cccc2c(C34CNCC3C4)n[nH]c12 (centres unmarked)
Output line: n

Input line: Please answer likewise for Fc1cc(Cl)c2[nH]nc(C34CNCCC3C4(F)F)c2c1 (centres unmarked)
Output line: n

Input line: Please answer likewise for "C1=C(c2c[nH]c3ccncc23)CNCC1"
Output line: n

Input line: Please answer likewise for "C1=C(c2c[nH]c3cccnc23)CNCC1"
Output line: n

Input line: Please answer likewise for Cc1cccc2c(C34CCNCC3C4)n[nH]c12 (centres unmarked)
Output line: n

Input line: Please answer likewise for Clc1cccc2c(C34CNCC3C4)n[nH]c12 (centres unmarked) [Example 180]
Output line: n

* * *

biological target: UniProt P28223; assay: cell-based; set-up: expressed in transfected cells; host or cells: HEK293T cells, transient co-transfection; conditions: HEK-293T, BRET1 beta-arrestin2 recruitment, HEK293T cells, normalized to 5-HT; read-out: 5HT2A β-Arr Emax (%)
READOUT NAME: Emax

Input line: // fetch UniProt P28223 Emax for Cc1cccc2[nH]cc(C3=CCCN(C)C3)c12 [Example 19]
Output line: 40.4%

Input line: Please answer likewise for Fc1cnc2[nH]cc(C3=CCCNC3)c2c1 [Example 120]
Output line: 60.4%

Input line: Please answer likewise for CCc1cccc2c(C3=CCCN(C)C3)c[nH]c12 [Example 52]
Output line: 73.4%

Input line: Please answer likewise for Fc1cccc2[nH]nc(C3=CCCNC3)c12 [Example 81]
Output line: 75.7%

Input line: Please answer likewise for Fc1ccc2[nH]nc(C3=CCCNC3)c2c1 [Example 85]
Output line: 96%

Input line: Please answer likewise for Cc1cccc2c(C3=CCCN(C)C3)n[nH]c12 [Example 105]
Output line: 45.7%

Input line: Please answer likewise for Cc1ccc2c(C3=CCCNC3)n[nH]c2c1 [Example 76]
Output line: 88.7%

Input line: Please answer likewise for CN1CCC=C(c2c[nH]c3nccc(Cl)c23)C1 [Example 15]
Output line: 31.5%

Input line: Please answer likewise for N#Cc1ccc2[nH]nc(C3=CCCNC3)c2c1 [Example 86]
Output line: 95.1%

Input line: Please answer likewise for CN1CCC=C(c2c[nH]c3c(C(F)(F)F)cccc23)C1 [Example 59]
Output line: 56.9%

Input line: Please answer likewise for COc1ccnc2[nH]cc(C3=CCCN(C)C3)c12 [Example 14]
Output line: 32.2%

* * *

target: 5HT2A receptor (Homo sapiens); test: biochemical; type: binding; parameters: expressed in transfected cells; crude membranes; conditions: 5HT2A Ki (nM), secondary binding assay, Cheng-Prusoff
Ki vs 900 nM: less than gives Y; not less than gives N.

Input line: Problem: For the compound "CCCN1CCC=C(c2c[nH]c3c(CC)cccc23)C1" , is Ki under 900 nM?
Output line: Y

Input line: Please answer likewise for CN1CCC2CC2(c2n[nH]c3c(Cl)cccc23)C1 (stereo not shown)
Output line: N

Input line: Please answer likewise for "CCCN1CCC=C(c2n[nH]c3c(CC)cccc23)C1"
Output line: Y

Input line: Please answer likewise for "CCCN1CCC=C(c2c[nH]c3cnccc23)C1"
Output line: N

Input line: Please answer likewise for "C1=C(c2c[nH]c3cccnc23)CNCC1"
Output line: Y

Input line: Please answer likewise for Clc1cccc2c(C34CNCCC3C4)c[nH]c12 (stereo not shown)
Output line: Y

Input line: Please answer likewise for Clc1cccc2c(C3CC4CCC(C3)N4)n[nH]c12 (stereo not shown)
Output line: N

Input line: Please answer likewise for "Clc1cccc2c(C3=CCCN(C4CC4)C3)n[nH]c12"
Output line: Y

Input line: Please answer likewise for "Clc1cccc2c(C3=CN4CCC3CC4)c[nH]c12"
Output line: N

* * *

target: 5HT2A receptor (Homo sapiens, UniProt P28223); experiment: cell-based; parameters: expressed in transfected cells; host or cells: HEK293T cells, transient co-transfection; settings: HEK-293T, BRET2 Gαq dissociation, HEK293T, normalized to 5-HT; read-out: 5HTA Gq Emax (%)
Sequence (P28223 whole entry): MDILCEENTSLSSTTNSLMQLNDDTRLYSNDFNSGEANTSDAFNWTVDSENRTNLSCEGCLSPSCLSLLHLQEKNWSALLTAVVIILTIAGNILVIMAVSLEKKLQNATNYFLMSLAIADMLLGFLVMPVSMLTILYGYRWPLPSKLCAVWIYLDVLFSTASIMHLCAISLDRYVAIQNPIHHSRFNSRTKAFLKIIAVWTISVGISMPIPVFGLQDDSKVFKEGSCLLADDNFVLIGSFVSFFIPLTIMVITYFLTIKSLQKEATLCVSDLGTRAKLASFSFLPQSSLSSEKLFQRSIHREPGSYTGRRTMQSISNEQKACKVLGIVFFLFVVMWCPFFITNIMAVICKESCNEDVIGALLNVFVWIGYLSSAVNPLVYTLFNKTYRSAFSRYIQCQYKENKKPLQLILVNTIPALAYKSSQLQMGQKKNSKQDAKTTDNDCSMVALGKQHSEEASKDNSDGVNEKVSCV
I'd appreciate it if you could supply Emax values for the items below.
Hi! Could you send only the number? It should be in %, unit omitted.

Input line: Fill in: Emax of CC(F)(F)CN1CCC=C(c2n[nH]c3c(Cl)cccc23)C1 [Example 163] is ___
Output line: 82.4

Input line: Please answer likewise for OCCN1CCC=C(c2n[nH]c3c(Cl)cccc23)C1 [Example 168]
Output line: 68.2

Input line: Please answer likewise for FC1(F)C2CNCC21c1n[nH]c2c(Cl)cccc12 (centres unmarked) [Example 199]
Output line: 87.1

Input line: Please answer likewise for Cc1ccc2[nH]cc(C3=CCCN(C)C3)c2n1 [Example 140]
Output line: 62.6

Input line: Please answer likewise for CN1CC(c2c[nH]c3c(F)cccc23)C1 [Example 260]
Output line: 63.1

Input line: Please answer likewise for CCCN1CCC=C(c2n[nH]c3c(Cl)cc(F)cc23)C1 [Example 173]
Output line: 57.3

Input line: Please answer likewise for Fc1cc(F)c2[nH]cc(C3CNC3)c2c1 [Example 264, 3-(azetidin-3-yl)-5,7-difluoro-1H-indole]
Output line: 44.7

Input line: Please answer likewise for CN1CC=C(c2n[nH]c3c(Cl)cccc23)C1 [Example 207]
Output line: 94.7

Input line: Please answer likewise for Fc1cc(Cl)c2[nH]cc(C3CNCCO3)c2c1 (centres unmarked) [Example 249]
Output line: 72.2

Input line: Please answer likewise for CCCN1CCC=C(c2c[nH]c3ccncc23)C1 [Example 144]
Output line: 67.2

Input line: Please answer likewise for Fc1cc(Cl)c2[nH]nc(N3CCNCC3)c2c1 [Example 232]
Output line: 48.4

Input line: Please answer likewise for C1=C(c2c[nH]c3ccncc23)CNCC1 [Example 141]
Output line: 91.3

Input line: Please answer likewise for CCCN1CCC=C(c2c[nH]c3c(C)cc(F)cc23)C1 [Example 161]
Output line: 93.2

Input line: Please answer likewise for CN1CCC=C(c2c[nH]c3c(Cl)c(F)ccc23)C1 [Example 128]
Output line: 89.2
